Task for the reader: assign each of the following compounds its reported TGI.
# System: SNB-75 CNS
# PROCEDURE DETAILS: NCI tumour cell line growth inhibition, 48 h
Answers are plain numbers, in µM.

Solved cases (3 shown):
- COMPOUND: "CCCCOc1ccc(/C=N/Nc2cc(C)nc3ccc(Cl)cc23)cc1"
  TEST SYSTEM: "SNB-75 CNS"
  TGI, µM: 3.33
- COMPOUND: "COc1ccc(/C=N/N=C(\\[O-])c2ccncc2)cc1F.COc1ccc(/C=N\\N=C(/[O-])c2ccncc2)cc1F.[Cu+2]"
  TEST SYSTEM: "SNB-75 CNS"
  TGI, µM: 28.2
- COMPOUND: "O=[As]c1ccc(C(=O)c2ccc(Oc3ccccc3)cc2)cc1 (stereo not given)"
  TEST SYSTEM: "SNB-75 CNS"
  TGI, µM: 0.15

Here is another compound to look at.
// lookup TGI for `ClCC#CCSc1ncnc2c1ncn2CC#CCCl`
3.06

----------
# Tested on: NCI-H460 lung
In this exercise, the only acceptable responses are T = active, F = inactive

Take a look at these entries with their results.
- SMILES REPR: "COC(=O)[C@]12CC[C@@H](C)[C@H](C)[C@@H]1C1=CC[C@@H]3[C@@]4(C)CC(=O)[C@H](OC(=O)c5ccco5)[C@@]5(C)COC(=C45)C[C@@]3(C)[C@]1(C)CC2"
  CATEGORY: "F"
- SMILES REPR: "O=C(CC(=O)c1ccccc1)c1ccccc1"
  CATEGORY: "F"
- SMILES REPR: "CC1(C)[C@@H](OC(N)=O)C=C[C@]2(C=O)[C@H]3CC[C@]4(C)[C@@H](c5ccc(=O)oc5)[C@@H](Cl)C[C@]4(O)C3=CC[C@@H]12"
  CATEGORY: "T"

Can you look up the reported call for `O=C(Nc1cc(-c2cccnc2)nc(NCCCN2CCOCC2)n1)c1cc(Br)cc(C(F)(F)F)c1` for me?
F

----------
# Tested on: HOP-62 NSCLC
# PROCEDURE DETAILS: NCI tumour cell line growth inhibition, 48 h
QUANTITY MEASURED: GI50

Solved cases (5 shown):
- SMILES REPR: "Cc1c(C(=O)O[C@H]2[C@@H]3[C@H](C)CC[C@H]3[C@]3(C)O[C@@]2(C2CCCCC2)C[C@H]3OC(=O)CO)ccc2ccccc12"
  GI50: "8.48 µM"
- SMILES REPR: "O=C(Nc1cc(-c2cccnc2)nc(NCCCN2CCOCC2)n1)c1cc(Br)cc(C(F)(F)F)c1"
  GI50: "2.71 µM"
- SMILES REPR: "CCc1nc(-n2c(-c3ccccc3)nc3ccccc3c2=O)nc(N)c1-c1ccc(Cl)cc1"
  GI50: "14.7 µM"
- SMILES REPR: "CC(C)(C)C(=O)OCc1nc2cc3c(cc2c(=O)[nH]1)CCC3=O"
  GI50: "> 100 µM"
- SMILES REPR: "CC[C@H](NC(=O)[C@H](CS(=O)(=O)CC1CC1)N[C@@H](c1ccc(F)cc1)C(F)(F)F)C(=O)C(=O)NC1CC1"
  GI50: "> 100 µM"

Here is another molecule to look at.
So what GI50 did `CC(=O)N1CCN(CCOc2ccc(C3CCN(C4=Nn5c(nnc5C(F)(F)F)CC4)CC3)cc2)CC1` get with HOP-62 NSCLC?
11.5 µM

----------
# Tested on: RPMI-8226 leukemia
# PROCEDURE DETAILS: NCI tumour cell line growth inhibition, 48 h
QUANTITY MEASURED: TGI

Solved cases (2 shown):
- COMPOUND: "OCC(O)C(OC1OC(CO)C(O)C(O)C1O)c1nn(-c2ccccc2)c2nc3cc(Cl)ccc3nc12 (stereo not drawn)"
  TGI: "> 100 µM"
- COMPOUND: "Nc1ccc(C(=O)N/C(=C\\c2cccc([N+](=O)[O-])c2)c2nc3c4c(ccc3[nH]2)C(=O)c2ccccc2C4=O)cc1"
  TGI: "> 100 µM"

Here is another compound to look at.
// lookup TGI for `COc1cccc(-c2cc(=O)c3cc(Cl)cnc3[nH]2)c1`
> 62.1 µM

----------
# Test system: MDA-N
# PROCEDURE DETAILS: NCI tumour cell line growth inhibition, 48 h
Task for the reader: assign each of the following molecules its reported TGI.

- MOLECULE: "CC1(C)c2ccccc2C(O)C12CCC(=O)CC2 (stereo unspecified)"
  TEST SYSTEM: "MDA-N"
  TGI: "> 100 µM"
- MOLECULE: "C=C1c2nc3ccccc3n2C=C(c2ccc(OC)cc2)N1c1ccc(OCCN2CCOCC2)cc1"
  TEST SYSTEM: "MDA-N"
  TGI: "> 100 µM"
- MOLECULE: "C/C=C1\\CC(C(=O)OCC)CCCCCCCCCCC1=O (stereo unspecified)"
  TEST SYSTEM: "MDA-N"
  TGI: "> 100 µM"
- MOLECULE: "CC(=O)N(CN1C(=O)CCC1C(=O)O)c1ccccc1Cl (stereo unspecified)"
  TEST SYSTEM: "MDA-N"
  TGI: "> 100 µM"
- MOLECULE: "O=C(NN=C1CCCCC1)NN=C1CCCCC1"
  TEST SYSTEM: "MDA-N"
  TGI: "> 100 µM"

Please give TGI for each item listed below.
1. CCCCNC(=S)Nc1nc(C(=O)NNC(=O)c2ccccc2)cs1
2. C[N+](C)([O-])CCCNc1ccnc2cccc([N+](=O)[O-])c12
3. Cc1sc2nc3n(c(=O)c2c1C)N=C(c1ccc([N+](=O)[O-])cc1)CS3
4. N#Cc1c2c(c(-c3cccs3)n(C3OC(CO)C(O)C(O)C3O)c1=S)CCc1ccccc1-2 (stereo unspecified)
5. COCCNC1CCC2(SCCS2)c2[nH]c3ccccc3c21 (stereo unspecified)
6. COc1cc2c(c(OC)c1OC)-c1ccc(SC)cc1C(=O)CC2
7. O=C1c2ccccc2-c2c1c1ccccc1c(=O)n2-c1ccccc1

1: 39.4 µM; 2: > 100 µM; 3: > 100 µM; 4: > 100 µM; 5: 57.9 µM; 6: 27.2 µM; 7: > 100 µM

----------
# System: RPMI-8226 leukemia
# PROCEDURE DETAILS: NCI tumour cell line growth inhibition, 48 h
QUANTITY MEASURED: TGI

- COMPOUND: "CCOC(=O)NC(=O)c1c[nH]c(=O)[nH]c1=O"
  TGI: "> 100 µM"
- COMPOUND: "CN(C)CCNc1nc2c(no[n+]2[O-])c2ccccc12"
  TGI: "> 100 µM"
- COMPOUND: "C=CCCC(=O)N1C=CC(=O)[C@H](O)[C@@H]1/C=C/c1ccccc1"
  TGI: "> 32.5 µM"
- COMPOUND: "CC(C)(C)C(=O)OCc1nc2cc3c(cc2c(=O)[nH]1)CCC3=O"
  TGI: "> 100 µM"

Please give TGI for each item listed below.
1. CCOC(=O)CC[C@H](N)C(=O)N[C@H](Cc1ccc(N(CCCl)CCCl)cc1)C(=O)OCC
2. C[N+](C)(C)CC1CCCC/C1=N\O (stereo not drawn)
3. CCc1nc(-n2c(-c3ccccc3)nc3ccccc3c2=O)nc(N)c1-c1ccc(Cl)cc1
4. CC(=O)O[C@H]1C=CC23OC(=O)[C@]1(C)[C@H]2[C@H](C(=O)O)C12CC(=O)[C@@](CO)(CC[C@H]13)C2

1: > 73.9 µM; 2: > 100 µM; 3: > 100 µM; 4: > 100 µM

Please give TGI for each item listed below.
1. COc1ccc(/C=N/N=C(\[O-])c2ccncc2)cc1F.COc1ccc(/C=N\N=C(/[O-])c2ccncc2)cc1F.[Cu+2]
2. CCCC1(N)CC(OC)OC(C)C1O (stereo not drawn)
3. C#CCN(C)C(=O)N(CC#C)N=O
4. COc1cccc(C2=C(c3cn(C)c4cccc(OC)c34)C(=O)NC2=O)c1
5. Nc1ccc(-c2nc3ccccc3s2)cc1Br
6. NC(=O)N/N=C(/c1nc2ccc([N+](=O)[O-])cc2[nH]c1=O)C(O)c1ccco1 (stereo not drawn)
7. CN1B(c2ccccc2)N(C)C(=O)N(C)C1=O

1: > 100 µM; 2: > 100 µM; 3: > 100 µM; 4: > 24.1 µM; 5: > 100 µM; 6: > 100 µM; 7: > 100 µM

Please give TGI for each item listed below.
1. OC(c1ccccc1)(c1cccnc1)C(O)(c1ccccc1)c1cccnc1 (stereo not drawn)
2. CCOC(=O)/N=c1/nc(N(C)C)ss1
3. COc1ccc(/C=N/Nc2nc(C)c3c(n2)Nc2ccccc2NC3=O)cc1

> 100 µM
> 100 µM
> 100 µM

----------
Task for the reader: assign each of the following molecules its reported TGI.
# System: HT29 colon
# PROCEDURE DETAILS: NCI tumour cell line growth inhibition, 48 h

Solved cases (3 shown):
- MOLECULE: "CC(=O)O[C@H]1C=CC23OC(=O)[C@]1(C)[C@H]2[C@H](C(=O)O)C12CC(=O)[C@@](CO)(CC[C@H]13)C2"
  QUANTITY MEASURED: "TGI"
  RESULT: "> 100 µM"
- MOLECULE: "OC1c2ccccc2C(O)C2OC12 (stereo unspecified)"
  QUANTITY MEASURED: "TGI"
  RESULT: "> 100 µM"
- MOLECULE: "CC1=CC(=O)/C(=C/n2c(=S)[nH]c3ccccc32)C(=O)O1"
  QUANTITY MEASURED: "TGI"
  RESULT: "> 100 µM"

Please give TGI for each item listed below.
1. Cc1cc(O)c(C(C)C)cc1N=Cc1ccccc1O
2. Cc1sc2ncn(Cc3ccc(Cl)c(Cl)c3)c(=O)c2c1C
3. CN(C)CCn1nc(N)c2nc3cc(C(F)(F)F)ccc3nc21
4. CN(C)CCNc1nc(-c2cccs2)cc(-c2cccs2)n1
5. Oc1ccc(Cl)cc1-c1cc(-c2ccc(F)cc2)n[nH]1
6. CCOc1cc(C(C)(C)C)ccc1C1=N[C@@](C)(c2ccc(Cl)cc2)[C@@](C)(c2ccc(Cl)cc2)N1C(=O)N1CCN(CCS(C)(=O)=O)CC1
7. N=C(N)SCCc1ccccn1
8. N=C(c1cccs1)C1(N2CCCCC2)CCCCC1

["> 74 µM", "> 100 µM", "> 100 µM", "22.2 µM", "22.2 µM", "4.74 µM", "> 100 µM", "34.5 µM"]

Please give TGI for each item listed below.
1. COC[C@@H](Cc1ccc(OC)c(OC)c1)[C@@H](COC)Cc1ccc(OC)c(OC)c1
2. COc1ccc(C2=NOP(c3ccccc3)(c3ccccc3)(c3ccccc3)C2)cc1
3. CC1CN=C(c2ccc(COc3ccc(C4=NCC(C)N4)cc3)cc2)N1 (stereo unspecified)
4. Cc1c(C(=O)O[C@H]2[C@@H]3[C@H](C)CC[C@H]3[C@]3(C)O[C@@]2(C2CCCCC2)C[C@H]3OC(=O)CO)ccc2ccccc12
5. C#CCN(Cc1nc2cc(C(F)(F)F)ccc2nc1-c1ccccc1)c1ccc(F)c(F)c1

["> 100 µM", "> 48.5 µM", "> 100 µM", "14.2 µM", "> 100 µM"]

Please give TGI for each item listed below.
1. O=C(O)CC(O)(C(=O)O)C(O)C(=O)O (stereo unspecified)
2. O=C(Nc1cccc(C(F)(F)F)c1)c1cc(Br)cc(Br)c1O
3. CC(C)(C)C(=O)OCc1nc2cc3c(cc2c(=O)[nH]1)CCC3=O
4. CCOP(=O)(OCC)C(C)(C)OC(=O)NC#N
5. CN(C)CCNc1nc2ccccc2c2c(=O)c3ccccc3sc12

> 1000 µM
> 10 µM
> 100 µM
> 100 µM
4.81 µM
